# test_target: Glutamate receptor ionotropic, NMDA 1 (Rattus norvegicus)
# test_description: In vitro binding affinity for glycine site on the NMDA receptor.
Exercise: for every item that follows, state its recorded log10(Ki).
Heads up: the numbers are on a log10 scale; they represent Ki in nM.

record_smiles	log10(Ki)
Cc1c(I)cnc2nc(O)c(O)nc12	3.25

Record log10(Ki) for all entries; do not skip any.
1. Oc1nc2nc(Cl)c(Cl)c(Cl)c2nc1O
2. Cc1c(Cl)cnc2nc(O)c(O)nc12
3. CCCc1nc2nc(O)c(O)nc2cc1Cl
4. [O-][n+]1cc(Cl)cc2nc(O)c(O)nc21
5. Cc1c(Cl)c(Cl)[n+]([O-])c2nc(O)c(O)nc12
6. [O-][n+]1c(Cl)ccc2nc(O)c(O)nc21

Result ::
1. 2.04
2. 3.46
3. 3.18
4. 2.71
5. 3.50
6. 3.67

----------
# test_target: Glutamate receptor ionotropic, NMDA 1 (Rattus norvegicus)
# test_description: In vitro binding affinity for glycine site on the NMDA receptor.
reported_endpoint: pKi
Give bare numbers, as −log10 of the molar value.

Here are 4 compounds together with their reported answers.
record_smiles	reported_endpoint	recorded_measurement
Oc1nc2cc(C(F)(F)F)cnc2nc1O	pKi	6.30
Cc1c(Cl)c(Cl)nc2nc(O)c(O)nc12	pKi	6.72
Cc1c(I)cc2nc(O)c(O)nc2[n+]1[O-]	pKi	6.65
Oc1nc2cc(Cl)c(Cl)nc2nc1O	pKi	6.73

Items follow; give pKi for each.
1. [O-][n+]1c(Cl)c(Br)cc2nc(O)c(O)nc21
2. Cc1c(Br)c(Cl)nc2nc(O)c(O)nc12

Result ::
6.95
6.55

GET /value?item= Cc1nc2nc(O)c(O)nc2cc1I &field=pKi returns 6.33

----------
# test_target: Glutamate receptor ionotropic, NMDA 1 (Rattus norvegicus)
# test_description: In vitro binding affinity for glycine site on the NMDA receptor.
reported_endpoint: pKi
Numbers only, as −log10 of the molar value.

Here are 3 compounds together with their reported answers.
record_smiles	pKi
Cc1c(Br)cnc2nc(O)c(O)nc12	5.80
Cc1c(Br)c(Cl)[n+]([O-])c2nc(O)c(O)nc12	5.52
Oc1nc2ncc(C(F)(F)F)c(Cl)c2nc1O	5.80

# batch: return pKi for each of the 4 compounds below
1. [O-][n+]1c(Cl)c(I)cc2nc(O)c(O)nc21
2. [O-][n+]1cc(C(F)(F)F)c(Cl)c2nc(O)c(O)nc21
3. Cc1nc2nc(O)c(O)nc2c(C)c1Cl
4. Oc1nc2ccc(Cl)nc2nc1O

Result ::
[6.68, 5.43, 6.09, 5.21]

Batch request: pKi for each of the following compounds.
1. [O-][n+]1cc(I)cc2nc(O)c(O)nc21
2. Cc1c(Br)c[n+]([O-])c2nc(O)c(O)nc12
3. [O-][n+]1cc(C(F)(F)F)cc2nc(O)c(O)nc21

Result ::
1: 6.13; 2: 6.27; 3: 6.37

Okay, here is my list. What is pKi for each of these?
1. Cc1c(I)c[n+]([O-])c2nc(O)c(O)nc12
2. [O-][n+]1c(Cl)c(Cl)cc2nc(O)c(O)nc21
3. CCCc1c(Cl)cc2nc(O)c(O)nc2[n+]1[O-]

Result ::
[6.04, 6.95, 6.34]

----------
Exercise: state measured ED50 for each of the compounds provided.
# Tested on: Rattus norvegicus
# test_description: Compound was evaluated in vivo for antagonistic activity against glycine site in NMDA induced convulsion model in rats after ip administration.
# Format: functional
State the value with its unit after it.

record_smiles	test_target	ED50
[O-][n+]1c(Cl)c(Cl)cc2nc(O)c(O)nc21	Rattus norvegicus	24 mg/kg
[O-][n+]1c(Cl)c(C(F)(F)F)cc2nc(O)c(O)nc21	Rattus norvegicus	60 mg/kg
Oc1nc2cc(Cl)c(Cl)nc2nc1O	Rattus norvegicus	41 mg/kg

Batch of 4 compounds: report ED50 for each.
1. Cc1c(Br)c[n+]([O-])c2nc(O)c(O)nc12
2. Cc1c(Cl)c(Cl)[n+]([O-])c2nc(O)c(O)nc12
3. Cc1c(I)c[n+]([O-])c2nc(O)c(O)nc12
4. [O-][n+]1c(Cl)c(Br)cc2nc(O)c(O)nc21

Result ::
9 mg/kg
30 mg/kg
30 mg/kg
45 mg/kg

----------
# Tested on: Rattus norvegicus
# test_description: Compound was evaluated in vivo for antagonistic activity against glycine site in NMDA induced convulsion model in rats after ip administration.
# Type: functional
Simple rule here: ED50 less than 20 mg/kg is Criterion met, otherwise Criterion not met.

record_smiles	test_target	group_label
[O-][n+]1cc(C(F)(F)F)c(Cl)c2nc(O)c(O)nc21	Rattus norvegicus	Criterion not met
Oc1nc2cc(Br)c(Cl)nc2nc1O	Rattus norvegicus	Criterion not met
Cc1c(Cl)c[n+]([O-])c2nc(O)c(O)nc12	Rattus norvegicus	Criterion met
Oc1nc2cc(C(F)(F)F)cnc2nc1O	Rattus norvegicus	Criterion not met

Query :: API: query returns whether the compound falls strictly under 20 mg/kg in ED50. Query: [O-][n+]1cc(I)cc2nc(O)c(O)nc21
Result :: Criterion not met

----------
# test_target: Glutamate receptor ionotropic, NMDA 1 (Rattus norvegicus, UniProt P35439)
# test_description: In vitro binding affinity for glycine site on the NMDA receptor.
pKi: −log10 of the molar value.
Label not met if pKi falls below 6; label met in every other case.

record_smiles	group_label
Oc1nc2cc(I)c(Cl)nc2nc1O	met

Query :: In plain terms: is recorded pKi at least 6 for Cc1c(Cl)c[n+]([O-])c2nc(O)c(O)nc12 ?
Result :: met

Query :: Answer whether pKi of [O-][n+]1c(Cl)c(C(F)(F)F)cc2nc(O)c(O)nc21 is greater than or equal to 6.
Result :: met

Query :: Determine whether measured pKi meets or exceeds 6 for Oc1nc2cc(C(F)(F)F)c(Cl)nc2nc1O
Result :: met

Query :: Can CCCc1nc2nc(O)c(O)nc2c(C)c1Cl be said to have pKi at or above 6?
Result :: not met
